- Test system: LOX IMVI melanoma
- PROTOCOL_DESCRIPTION: NCI tumour cell line growth inhibition, 48 h
PROPERTY_LABEL: TGI

Q: If you can, please state the reported TGI value of O=[N+]([O-])c1cnc(N(CCO)CCO)s1 .
Ans: > 100 µM

Q: If you can, please state the reported TGI value of COc1ccc(N2C(=O)C(=O)N(C)C2=O)c2ccccc12 .
Ans: > 10 µM

Q: If you can, please state the reported TGI value of Cc1cccc2c(N)c3cccc(C(=O)NCC[N+](C)(C)Cc4ccc(S(C)(=O)=O)cc4)c3nc12 .
Ans: > 100 µM

====

Can you tell me TGI for the items I'm about to list?
- Tested on: MDA-N
- PROTOCOL_DESCRIPTION: NCI tumour cell line growth inhibition, 48 h

Q: If you can, please state the reported TGI value of CC(=O)Nc1c2sscc-2n(C)c1=O .
Ans: 3.13 µM

Q: If you can, please state the reported TGI value of Cc1ccc(S(=O)(=O)NN=C2C(C)(C)CC2(C)C)cc1 .
Ans: > 100 µM

Q: If you can, please state the reported TGI value of NC(CP(=O)(O)O)C(=O)O (centres undefined) .
Ans: > 100 µM

Q: If you can, please state the reported TGI value of NC1=NCC(CN2CCCCC2)O1 (centres undefined) .
Ans: > 100 µM

====

Can you tell me TGI for the items I'm about to list?
- Tested on: RXF 393 renal
- PROTOCOL_DESCRIPTION: NCI tumour cell line growth inhibition, 48 h

Q: If you can, please state the reported TGI value of CCOc1ccc(N2C(=O)NC3(c4ccccc4)N(C)C(=O)N(C)C23c2ccccc2)cc1 (configuration not stated) .
Ans: > 100 µM

Q: If you can, please state the reported TGI value of Clc1ccc(-c2nc3c(-c4ccccc4)nc(-c4ccccc4)cn3c2-c2ccc(Cl)cc2)cc1 .
Ans: > 100 µM

Q: If you can, please state the reported TGI value of CC1NC(C(=O)O)Cc2cc(O)c(O)cc21 (configuration not stated) .
Ans: > 100 µM

Q: If you can, please state the reported TGI value of Nc1c(C(=O)c2ccc(C#CCN3CCOCC3)cc2)cnn1-c1ccc(F)cc1 .
Ans: > 25 µM

Q: If you can, please state the reported TGI value of COc1ccc(C2CC(c3ccc(NS(=O)(=O)c4cc([N+](=O)[O-])ccc4C)cc3)=NN2S(=O)(=O)c2cc([N+](=O)[O-])ccc2C)cc1 (configuration not stated) .
Ans: > 100 µM

Q: If you can, please state the reported TGI value of CC1(CO)C(O)CCC2(C)C1C(O)CC1CC3CC12CCC3(O)CO (configuration not stated) .
Ans: > 225 µM

Q: If you can, please state the reported TGI value of CN1C(=O)/C(=C2\S/C(=N\c3nnc(-c4ccccc4)o3)NC2=O)c2ccccc21 .
Ans: > 100 µM

Q: If you can, please state the reported TGI value of CC(C)(Oc1ccc(C(=O)c2ccc(Cl)cc2)cc1Cl)C(=O)N1CCN(CCO)CC1 .
Ans: > 10 µM

Q: If you can, please state the reported TGI value of COc1ccc(/C=C2\C[C@H]3[C@@H]4CC=C5C[C@@H](OC(C)=O)CC[C@]5(C)[C@H]4CC[C@]3(C)C2=O)cc1OC .
Ans: > 100 µM

Q: If you can, please state the reported TGI value of Cc1ccc(C(=O)C(c2nc3n(c2O)C(=N)N=N3)c2nc3n(c2O)C(=N)N=N3)cc1 (configuration not stated) .
Ans: > 100 µM

Q: If you can, please state the reported TGI value of Cc1nn(C(=O)c2ccc(Cl)cc2)c2c1C(c1ccccc1O)SC(N)=N2 (configuration not stated) .
Ans: > 10 µM

Q: If you can, please state the reported TGI value of COc1cc(N2CCN(C(C)C)CC2)ccc1Nc1nc(Nc2ccc(F)cc2C(=O)NCC(O)CO)c2cc[nH]c2n1 (configuration not stated) .
Ans: > 25 µM

Q: If you can, please state the reported TGI value of CC1OC(OC2C(OC(=O)[C@]34CCC(C)(C)CC3C3=CCC5[C@@]6(C)C[C@H](O)[C@H](OC7OC(COC8OC(CO)C(O)C(O)C8O)C(O)C(O)C7O)[C@@](C)(C(=O)O)C6CC[C@@]5(C)C3(C)CC4)OCC(O)C2O)C(O)C(O)C1OC1OCC(O)C(O)C1O (some centres not stated) .
Ans: > 100 µM

Q: If you can, please state the reported TGI value of O=CC1CCC=CC1NC(=O)OCc1ccccc1 (configuration not stated) .
Ans: > 100 µM

Q: If you can, please state the reported TGI value of COc1ccc(-c2[nH]c(-c3ccc(OC)cc3)c(-c3ccccn3)c2-c2ccccn2)cc1 .
Ans: > 100 µM

Q: If you can, please state the reported TGI value of COc1ccc(C[n+]2cccc(O)c2)cc1 .
Ans: > 100 µM

Q: If you can, please state the reported TGI value of O=C(O)CCC(=O)Oc1ccc(O)c2c1CCCC2=O .
Ans: > 100 µM

Q: If you can, please state the reported TGI value of Clc1cc2nc(C3CCCCO3)[nH]c2cc1Cl (configuration not stated) .
Ans: > 52.6 µM

Q: If you can, please state the reported TGI value of CC(C)NC(=O)OCc1nnn2c1CCC2 .
Ans: > 100 µM

Q: If you can, please state the reported TGI value of COC(=O)[C@H](C)NC(=O)C1(CNC(=O)[C@H](C)NC(=O)OC(C)(C)C)Cc2ccccc2-c2ccccc2C1 .
Ans: > 88.9 µM

Q: If you can, please state the reported TGI value of COc1ccc(NC(=S)C#N)cc1 .
Ans: > 100 µM

Q: If you can, please state the reported TGI value of COc1ccc(N2C(=O)C(=O)N(C)C2=O)c2ccccc12 .
Ans: > 10 µM
